Each recorded value in this set is attributed to ChEMBL document CHEMBL4842348.

Experiment: Lipophilicity, logD of the compound at pH 7.3 by HPLC analysis
Assay type: physicochemical
Conditions: buffer
endpointName: logD

Illustrative cases are given below, each with its answer.
COc1ncc(-c2c(C)cc(C(=O)O)cc2C)cc1-c1ccc(C(F)(F)F)cc1[C@@H]1CC[C@H]2[C@@H](c3cc(F)cc(C(F)(F)F)c3)OC(=O)N12: 4.8
COc1ncc(-c2cc(-c3ccc(C(=O)O)cc3C)ccc2OC)c(CN2C(=O)O[C@H](c3cc(C(F)(F)F)cc(C(F)(F)F)c3)[C@@H]2C)n1: 4.2
COc1ccc(-c2ccc(C(=O)O)cc2C)cc1-c1cnc(C(F)(F)F)nc1CN1C(=O)O[C@H](c2cc(C(F)(F)F)cc(C(F)(F)F)c2)[C@@H]1C: 4.9

(P) COc1ncc(-c2ccc(C(=O)O)cc2C)cc1-c1ccc(C(F)(F)F)cc1[C@@H]1CC[C@H]2[C@@H](c3cc(F)cc(C(F)(F)F)c3)OC(=O)N12
(Q) COc1ccc(-c2ccc(C(=O)O)cc2C)cc1-c1cnc(N(C)C)nc1CN1C(=O)O[C@H](c2cncc(C(F)(F)F)c2)[C@@H]1C
Q. Lowest logD? choose P or Q Please reply using the label of the selected record.
A. Q

(a) COc1cc(F)c(C(C)C)cc1-c1ccc(N(C)C)nc1[C@@H]1CC[C@H]2[C@@H](c3cc(C(F)(F)F)cc(C(F)(F)F)c3)OC(=O)N12
(b) COc1ccc(-c2ccc(C(=O)O)cc2C)cc1-c1cnc(C(F)(F)F)cc1CN1C(=O)O[C@H](c2cc(C(F)(F)F)cc(C(F)(F)F)c2)[C@@H]1C
Q. Lowest logD? choose a or b Please reply using the label of the selected record.
A. b
(b: 4.7, a: 6.9)

###

Experiment: Terminal half life in DIO NFR-transgenic mouse liver at 10 mg/kg, po once daily for 14 days
Format: ADME, organism-based
Details: time 14 day, read-out: beta t1/2 (converted)
endpointName: half-life at […] (h)
Report the figure in h without appending any unit label.

Q. // half-life at […] lookup, key: COc1ncc(-c2ccc(C(=O)O)cc2C)cc1-c1ccc(C(F)(F)F)cc1[C@@H]1CC[C@H]2[C@@H](c3cc(C(F)(F)F)cc(C(F)(F)F)c3)OC(=O)N12
A. 5.5

###

Test: AUC (0 to infinitive) in rhesus monkey at 2 mg/kg, po
Type: ADME, organism-based, Macaca mulatta
Parameters: route oral, time infinity, dose 2 mg/kg
Details: in vivo
endpointName: AUC(0-inf) (µM·h)
Report the figure in µM·h without appending any unit label.

Q. // AUC(0-inf) lookup, key: COc1ncc(-c2ccc(C(=O)O)cc2C)cc1-c1ccc(C(F)(F)F)cc1[C@@H]1CC[C@H]2[C@@H](c3cc(C(F)(F)F)cc(C(F)(F)F)c3)OC(=O)N12
A. 11

###

Assay: Volume of distribution at steady state in rhesus monkey at 0.5 mg/kg, iv
Type: ADME, organism-based, Macaca mulatta
Conditions: in vivo, read-out: Vdss
endpointName: Vd (L/kg)
Report the figure in L/kg without appending any unit label.

Q. // Vd lookup, key: COc1ncc(-c2ccc(C(=O)O)cc2C)cc1-c1ccc(C(F)(F)F)cc1[C@@H]1CC[C@H]2[C@@H](c3cc(C(F)(F)F)cc(C(F)(F)F)c3)OC(=O)N12
A. 1.3

###

Assay: Volume of distribution at steady state in WH rat at 1 mg/kg, iv
Assay type: ADME, organism-based
Details: in vivo, read-out: Vdss
endpointName: Vd (L/kg)
Report the figure in L/kg without appending any unit label.

Q. // Vd lookup, key: COc1ncc(-c2ccc(C(=O)O)cc2C)cc1-c1ccc(C(F)(F)F)cc1[C@@H]1CC[C@H]2[C@@H](c3cc(C(F)(F)F)cc(C(F)(F)F)c3)OC(=O)N12
A. 2.4

###

Assay: Cmax in fasted dog at 1 mg/kg, po in Imwitor/Tween
Type: ADME, organism-based, Canis lupus familiaris
Set-up: route oral, dose 1 mg/kg
Details: in vivo
endpointName: Cmax (nM)
Report the figure in nM without appending any unit label.

Q. // Cmax lookup, key: COc1ncc(-c2ccc(C(=O)O)cc2C)cc1-c1ccc(C(F)(F)F)cc1[C@@H]1CC[C@H]2[C@@H](c3cc(C(F)(F)F)cc(C(F)(F)F)c3)OC(=O)N12
A. 1500

###

Assay: Half life in lean NFR-transgenic mouse liver at 10 mg/kg, po qd treated for 40 days
Format: ADME, organism-based
Details: time 40 day
endpointName: half-life (h)
Report the figure in h without appending any unit label.

Q. // half-life lookup, key: COc1ncc(-c2ccc(C(=O)O)cc2C)cc1-c1ccc(C(F)(F)F)cc1[C@@H]1CC[C@H]2[C@@H](c3cc(C(F)(F)F)cc(C(F)(F)F)c3)OC(=O)N12
A. 69.6

###

Assay: Cmax in C57BL/6 mouse at 1 mg/kg, iv and 2 mg/kg, po
Format: ADME, organism-based
Design: dose 2 mg/kg
Conditions: in vivo
endpointName: Cmax (nM)

Cc1cc(C(=O)O)ccc1-c1ccc(Cl)c(-c2ccc(C(F)(F)F)cc2CN2C(=O)O[C@H](c3cc(C(F)(F)F)cc(C(F)(F)F)c3)[C@@H]2C)c1: 390

(P) COc1ccc(-c2ccc(C(=O)O)cc2C)cc1-c1ccc(C(F)(F)F)cc1CN1C(=O)O[C@H](c2cc(C(F)(F)F)cc(C(F)(F)F)c2)[C@@H]1C
(Q) COc1ccc(C(C)C)cc1-c1ccc(C(F)(F)F)cc1CN1C(=O)O[C@H](c2cc(C(F)(F)F)cc(C(F)(F)F)c2)[C@@H]1C
Q. Lowest Cmax? choose P or Q Please reply using the label of the selected record.
A. Q

###

Assay: Oral bioavailability in high fat diet fed dog at 1 mg/kg in 0.5% methocel
Format: ADME, organism-based, Canis lupus familiaris
Details: in vivo
endpointName: bioavailability (%)
Report the figure in % without appending any unit label.

Q. // bioavailability lookup, key: COc1ncc(-c2ccc(C(=O)O)cc2C)cc1-c1ccc(C(F)(F)F)cc1[C@@H]1CC[C@H]2[C@@H](c3cc(C(F)(F)F)cc(C(F)(F)F)c3)OC(=O)N12
A. 9

###

Experiment: Half life in NFR-transgenic mouse plasma at 10 mg/kg, po single dose
Assay type: ADME, organism-based
endpointName: half-life (h)
Report the figure in h without appending any unit label.

Q. // half-life lookup, key: COc1ncc(-c2ccc(C(=O)O)cc2C)cc1-c1ccc(C(F)(F)F)cc1[C@@H]1CC[C@H]2[C@@H](c3cc(C(F)(F)F)cc(C(F)(F)F)c3)OC(=O)N12
A. 12

###

Test: Terminal half life in C57BL/6-transgenic mouse expressing human CETP at 100 mg/kg, po qd treated for 7 days measured for 240 hrs
Type: ADME, organism-based
Conditions: C57BL/6-transgenic expressing human CETP, in vivo, time 7 day, read-out: beta t1/2 (converted)
endpointName: half-life (days)
Report the figure in days without appending any unit label.

Q. // half-life lookup, key: Cc1cc(C(=O)O)ccc1-c1ccc(Cl)c(-c2ccc(C(F)(F)F)cc2CN2C(=O)O[C@H](c3cc(C(F)(F)F)cc(C(F)(F)F)c3)[C@@H]2C)c1
A. 3.46

###

Assay: MRT in Beagle dog at 0.5 mg/kg, iv
Format: ADME, organism-based, Canis lupus familiaris
Conditions: in vivo
endpointName: MRT (h)
Report the figure in h without appending any unit label.

Q. // MRT lookup, key: COc1ncc(-c2ccc(C(=O)O)cc2C)cc1-c1ccc(C(F)(F)F)cc1[C@@H]1CC[C@H]2[C@@H](c3cc(C(F)(F)F)cc(C(F)(F)F)c3)OC(=O)N12
A. 18

###

Assay: AUC (0 to infinitive) in Beagle dog at 2 mg/kg, po
Type: ADME, organism-based, Canis lupus familiaris
Set-up: route oral, time infinity, dose 2 mg/kg
Conditions: in vivo
endpointName: AUC(0-inf) (µM·h)
Report the figure in µM·h without appending any unit label.

Q. // AUC(0-inf) lookup, key: COc1ncc(-c2ccc(C(=O)O)cc2C)cc1-c1ccc(C(F)(F)F)cc1[C@@H]1CC[C@H]2[C@@H](c3cc(C(F)(F)F)cc(C(F)(F)F)c3)OC(=O)N12
A. 13

###

Assay: Oral bioavailability in WH rat at 2 mg/kg
Type: ADME, organism-based
Conditions: in vivo
endpointName: bioavailability (%)
Report the figure in % without appending any unit label.

Q. // bioavailability lookup, key: COc1ncc(-c2ccc(C(=O)O)cc2C)cc1-c1ccc(C(F)(F)F)cc1[C@@H]1CC[C@H]2[C@@H](c3cc(C(F)(F)F)cc(C(F)(F)F)c3)OC(=O)N12
A. 65

###

Assay: Oral bioavailability in CD1 mouse at 2 mg/kg
Format: ADME, organism-based
Conditions: in vivo
endpointName: bioavailability (%)
Report the figure in % without appending any unit label.

Q. // bioavailability lookup, key: COc1ncc(-c2ccc(C(=O)O)cc2C)cc1-c1ccc(C(F)(F)F)cc1[C@@H]1CC[C@H]2[C@@H](c3cc(C(F)(F)F)cc(C(F)(F)F)c3)OC(=O)N12
A. 43
